- system-name: T1, Peptide 8: Biotin-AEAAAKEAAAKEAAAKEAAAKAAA-Tyr-acid (N-terminal biotin; C-terminal acid; no PC)
- T1 construct: control peptide without PC
- T1 peptide: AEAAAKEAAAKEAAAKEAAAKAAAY
- experimental-details: scFv ELISA
observable: OD450 (OD450)
One number for each entry, in OD450.

binder | measured-number
PcOxP_DB01_H09 (scFv, V domains shown, scFv in periplasmic extract) VH: EVQLLESGGGLVQPGGSLRLSCAASGFTFSDYYMEWVRQAPGKGLEWVAASRNKANTYTTEYADSVKGRFTISRDNSKNTLYLQMNSLRAEDTAVYYCARDYYGSSYWYDDVWGQGTLVTVSS VL: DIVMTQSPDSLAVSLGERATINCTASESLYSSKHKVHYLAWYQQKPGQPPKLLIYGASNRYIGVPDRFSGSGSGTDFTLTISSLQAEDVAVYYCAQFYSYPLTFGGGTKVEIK | 0.04

Which OD450 reading was recorded for the binder PcOxP_DB01_C10 (scFv, V domains shown, scFv in periplasmic extract) VH: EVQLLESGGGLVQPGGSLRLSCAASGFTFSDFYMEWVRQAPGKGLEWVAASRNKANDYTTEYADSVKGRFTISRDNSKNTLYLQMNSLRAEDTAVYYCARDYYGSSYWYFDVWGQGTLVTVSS VL: DIVMTQSPDSLAVSLGERATINCTSSQSLLSSSHNKNYLAWYQQKPGQPPKLLIYGASNRYIGVPDRFSGSGSGTDFTLTISSLQAEDVAVYYCAQFYSYPLTFGGGTKVEIK ?
0.04

Data origin: patent US20250320312A1
